target: His-tagged KRAS G12D protein (Homo sapiens, UniProt P01116, G12D)
Sequence (P01116 1-188 isoform P01116-2 G12D): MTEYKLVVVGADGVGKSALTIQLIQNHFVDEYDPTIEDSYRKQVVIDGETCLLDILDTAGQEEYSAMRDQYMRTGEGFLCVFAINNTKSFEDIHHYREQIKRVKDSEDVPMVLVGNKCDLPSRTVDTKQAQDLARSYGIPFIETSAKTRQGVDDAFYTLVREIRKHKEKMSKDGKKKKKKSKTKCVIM
measurement_protocol: KRAS G12D TR-FRET Assay
Format: binding
condition_context: TR-FRET binding
Where a name gives a salt, the structure may show the parent alone.
Listed here are molecules together with their documented pIC50.
FYI, pIC50 means -log10 of a concentration in mol per litre.

Check out these entries, answers already filled in.
{"molecule": "C[C@@]12CCCN(C1)c1nc(OC[C@@]34CCCN3C[C@H](F)C4)nc3c(F)c(ncc13)-c1cc(O)cc3c1[C@H](CCCC(=O)N2)CCC3 (single isomer, unassigned) [Example 28, 2,2,2-trifluoroacetate salt]", "pIC50": 7.17}
{"molecule": "CN1CCC[C@H]1COc1nc2c3cnc(c(F)c3n1)-c1c(c(Cl)cc3[nH]ncc13)CCCOC(=O)O[C@@]1(C)COCCN2C1 (single isomer, unassigned) [Example 180]", "pIC50": 5.82}

What value of measured pIC50 is listed for O=C1CCCc2c(F)ccc3cccc(c23)-c2ncc3c(nc(OC[C@@]45CCCN4C[C@H](F)C5)nc3c2F)N2CC[C@H]3CCN1[C@H]3C2 (single isomer, unassigned) [Example 72] ?
8.52

Consider next the molecule Cc1cc2[nH]ncc2c2c1CCCCO[C@H](C)[C@H]1CN(CCO1)c1nc(OC[C@@]34CCCN3C[C@H](F)C4)nc3c(F)c-2ncc13 (single isomer, unassigned) [Example 241] in the same way.
5.89

Same question for O=C1N[C@@H]2CCCCN(C2)c2nc(OC[C@@]34CCCN3C[C@H](F)C4)nc3c(F)c(ncc23)-c2c3c(cc4[nH]ncc24)CC[C@H]3CCO1 (single isomer, unassigned) [Example 301] please.
8.30

----------
Test system: Phosphorylation of ERK1/2 in AsPC-1 cells
measurement_protocol: Phospho-ERK1/2 MSD Assay
Type: cell-based, human
condition_context: Homo sapiens, ASPC1, 2 h, AsPC-1 cells, 2 h compound treatment; read-out: 2 h p-ERK (AsPC-1 cells), IC50
recorded_endpoint: pIC50
Note: pIC50 values are expressed as the negative base-10 logarithm of concentration in M.

These recorded examples may help you get a feel for the data.
{"compound": "C[C@@]12COCCN(C1)c1nc(OC[C@@]34CCCN3C[C@H](F)C4)nc3c(F)c(ncc13)-c1c(c(F)cc3[nH]ncc13)CCCOC(=O)O2 [Example 184]", "recorded_endpoint": "pIC50", "recorded_result": 7.93}
{"compound": "CN(C)CC1(COc2nc3c4cnc(c(F)c4n2)-c2c(c(Cl)cc4[nH]ncc24)CCOC(=O)O[C@H]2C[C@]4(CCCN3C4)C2)CC1 [Example 334]", "recorded_endpoint": "pIC50", "recorded_result": 8.10}
{"compound": "CC1COC(=O)C[C@@H]2CCCN(C2)c2nc(OC[C@@]34CCCN3C[C@H](F)C4)nc3c(F)c(ncc23)-c2c(c(Cl)cc3[nH]ncc23)C1 (stereo partly drawn) [Example 91]", "recorded_endpoint": "pIC50", "recorded_result": 7.57}

Requested read-out: pIC50. Entry: Cc1cc2[nH]ncc2c2c1CCCOC(=O)CC1CCCN(C1)c1nc(OC[C@@]34CCCN3C[C@H](F)C4)nc3c(F)c-2ncc13 (stereo partly drawn) [Example 39]
7.80

// query: O=C1OCCCc2c(Cl)cc3[nH]ncc3c2-c2ncc3c(nc(OC[C@@]45CCCN4C[C@H](F)C5)nc3c2F)N2CCC[C@]3(C2)C[C@H](C3)O1 [Example 323]
7.52

Same again, this time with O=C1CCCc2c(Cl)cc3[nH]ncc3c2-c2ncc3c(nc(OC[C@@]45CCCN4C[C@H](F)C5)nc3c2F)N2CCCC(CC1)C2 (mixture of isomers) [Example 236]
6.02

// query: O=C1OCCCc2c(Cl)cccc2-c2ncc3c(nc(OC[C@@]45CCCN4C[C@H](F)C5)nc3c2F)N2CCOC[C@H](C2)O1 [Example 186]
6.70

O=C1COCCc2c(Cl)cc3[nH]ncc3c2-c2ncc3c(nc(OC[C@@]45CCCN4C[C@H](F)C5)nc3c2F)N2CC[C@H]3CCN1[C@H]3C2 [Example 270] , same question.
6.91

Follow-up entry: Cc1cc2[nH]ncc2c2c1CCCn1ncc(n1)C1CCCN(C1)c1nc(OC[C@@]34CCCN3C[C@H](F)C4)nc3c(F)c-2ncc13 (stereo partly drawn) [Example 158]
6.56

Again, but for C[C@@]12CCCN(C1)c1nc(OC[C@@]34CCCN3C[C@H](F)C4)nc3c(F)c(ncc13)-c1cc(O)cc3ccc(F)c(c13)CCCC(=O)O2 [Example 43, bis(2,2,2-trifluoroacetate)]
7.89

Cool, now Fc1c2ncc3c(nc(OC[C@@]45CCCN4C[C@H](F)C5)nc13)N1CCC[C@]3(C1)C[C@H](C3)OCCCCc1c(Cl)cc3[nH]ncc3c1-2 [Example 260]
8.49

Similarly, O=C1CCCCc2c(Cl)cc3[nH]ncc3c2-c2ncc3c(nc(OC[C@@]45CCCN4C[C@H](F)C5)nc3c2F)N2CCC3CCN1[C@H]3C2 (mixture of isomers) [Example 60] ?
7.92

----------
In this section, each of the compounds is paired with its reported pIC50.
target: His-tagged KRAS G12D protein (Homo sapiens, UniProt P01116, G12D)
measurement_protocol: KRAS G12D TR-FRET Assay
Format: binding
condition_context: TR-FRET; read-out: KRAS G12D Binding IC50
The value called pIC50 is obtained by taking minus log10 of the concentration in mol/L.

Some compounds with recorded pIC50:
{"compound": "Fc1c2ncc3c(nc(OC[C@@]45CCCN4C[C@H](F)C5)nc13)N1CCOC[C@H](Cc3ncc(o3)CCc3c(Cl)cc4[nH]ncc4c3-2)C1 (single isomer, unassigned)", "recorded_result": 7.57}
{"compound": "Fc1c2ncc3c(nc(OC[C@@]45CCCN4C[C@H](F)C5)nc13)N1CCO[C@@H](C1)c1coc(n1)CCCc1c(Cl)cc3[nH]ncc3c1-2 (single isomer, unassigned)", "recorded_result": 5.40}
{"compound": "Fc1c2ncc3c(nc(OC[C@@]45CCCN4C[C@H](F)C5)nc13)N1CCOC[C@@H](Cc3ncc(o3)CCc3c(Cl)cc4[nH]ncc4c3-2)C1 (single isomer, unassigned)", "recorded_result": 7.80}

Can you share its pIC50? I mean this compound: Fc1c2ncc3c(nc(OC[C@@]45CCCN4C[C@H](F)C5)nc13)N1CCCCC(C1)c1noc(n1)CCCc1c(Cl)cc3[nH]ncc3c1-2 (mixture of isomers)
8.30

Repeat with Fc1c2ncc3c(nc(OC[C@@]45CCCN4C[C@H](F)C5)nc13)N1CCCC[C@](F)(COCCCCc3c(Cl)cc4[nH]ncc4c3-2)C1 (single isomer, unassigned)
8.40

Let us now turn to O=C1CCCCc2c(Cl)cc3[nH]ncc3c2-c2ncc3c(nc(OC[C@@]45CCCN4C[C@H](F)C5)nc3c2F)N2CC[C@@H]3[C@H](C2)N1CC3(F)F (single isomer, unassigned)
8.52

Proceed to Fc1c2ncc3c(nc(OC[C@@]45CCCN4C[C@H](F)C5)nc13)N1CCO[C@@H](COCC[C@H]3C[C@H]3c3c(Cl)cc4[nH]ncc4c3-2)C1 (single isomer, unassigned)
5.74

Next record, please: O[C@H]1C[C@H]2COCCCCc3c(Cl)cc4[nH]ncc4c3-c3ncc4c(nc(OC[C@@]56CCCN5C[C@H](F)C6)nc4c3F)N(C1)C2 (single isomer, unassigned)
8.22

// query: Fc1c2ncc3c(nc(OC[C@@]45CCCN4C[C@H](F)C5)nc13)N1CCO[C@@H](COCC[C@@H]3C[C@@H]3c3c(Cl)cc4[nH]ncc4c3-2)C1 (single isomer, unassigned)
8.22

Query Fc1c2ncc3c(nc(OC[C@@]45CCCN4C[C@H](F)C5)nc13)N1CCC[C@H](C1)Cn1ncc(n1)[C@@H]1C[C@@H]1c1c(Cl)cc3[nH]ncc3c1-2 (relative stereo) next
7.89
